test: soluble on expression in E. coli; label from the status in PepcDB or PDB records

Residue Codes: MAHHHHHHMSTDIPVNDNETNSSFKLKSEINSIENELKNWFLKRRLNMEINYSLKKLFDSYNFVGLSINNNINLKDKMLWYDIVNGKPELEDTLSMDAKEYKADQYSYLWNKSTTIDNACRLVGSIYFRCLKNNFQLKKSEREHKCIQNFINFNNCRNALKLQQANNIKDSLIKQNMEDNIAKALFERRSLLLDMLEDFK
soluble on expression in E. coli: not soluble
//
Residue Codes: MGSDKIHHHHHHSHKYTAITPGVEWLDTNNEKINAHGGGILYHEGIYYWYGECKSDSTYWNPNVPGWECYRTEAGGVNCYSSKDLLNWKYEGLVLQPEISDTQSDLHPSKVLERPKVIYNDKTKKFVMWLHVDSDDYNKAAAGVAVSDSPTGVFTYLGSMHPNGQISRDMTLFKDDDGKAYHIYSSEQNSTLYISLLSDDYLKPSGTFTRNFAGKFREAPAVFKHNGLYYVISSGCTGWSPNEAEYAVATQILGPWTVKGNPCVGKDADKTFYGQSTHVLPIQGKKDAYIAMFDKWNKTDLIHSTYIWLPIQFREDGSMAIQWLDSWSPDTYEF
soluble on expression in E. coli: not soluble
